Assayed Target: Abf1 (UniProt P14164)
Sequence: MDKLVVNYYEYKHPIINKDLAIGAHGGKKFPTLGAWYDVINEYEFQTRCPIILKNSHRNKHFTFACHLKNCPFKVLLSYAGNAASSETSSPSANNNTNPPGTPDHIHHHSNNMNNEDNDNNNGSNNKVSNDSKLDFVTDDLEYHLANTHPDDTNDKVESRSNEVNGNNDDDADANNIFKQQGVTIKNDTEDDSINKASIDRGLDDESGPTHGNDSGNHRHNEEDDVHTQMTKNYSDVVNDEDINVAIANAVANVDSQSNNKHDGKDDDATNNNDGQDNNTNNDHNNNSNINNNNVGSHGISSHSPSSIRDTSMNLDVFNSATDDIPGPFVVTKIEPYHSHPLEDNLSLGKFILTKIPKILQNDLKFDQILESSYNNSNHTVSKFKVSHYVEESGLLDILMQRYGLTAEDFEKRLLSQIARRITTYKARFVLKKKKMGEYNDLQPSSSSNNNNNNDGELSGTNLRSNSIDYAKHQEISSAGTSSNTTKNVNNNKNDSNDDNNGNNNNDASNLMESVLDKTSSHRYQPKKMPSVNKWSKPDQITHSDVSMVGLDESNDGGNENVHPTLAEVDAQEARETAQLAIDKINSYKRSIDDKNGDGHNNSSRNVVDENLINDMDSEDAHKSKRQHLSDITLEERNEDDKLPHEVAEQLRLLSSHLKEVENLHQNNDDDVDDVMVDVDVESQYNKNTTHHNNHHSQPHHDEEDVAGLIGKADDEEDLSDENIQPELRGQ
Test Name: PBM E-score (8-mer binding enrichment) (E-score (-0.5 to 0.5)); higher = stronger / more preferred TF binding
Condition Summary: protein concentration: 200 nM; construct: GST-full length
The full ranking holds about 33,000 sequences; the median of “E-score (-0.5 to 0.5)” is about -0.015, and the highest 2% start at about 0.3. This excerpt belongs to a sample that is enriched for the highest values.
Assign PBM E-score to each entry below.
Give the figure only, with no unit attached.

Entry ATACGGCA , PBM E-score reported as 0.376

Entry GTACGGCA , PBM E-score reported as 0.222

Entry TCGTTTAA , PBM E-score reported as 0.341

Entry TGATGTAA , PBM E-score reported as 0.145

Entry CCGTTTAA , PBM E-score reported as 0.266

Entry AACGGCAT , PBM E-score reported as 0.226

Entry GCGTTCAA , PBM E-score reported as -0.0872

Entry ATACGGGG , PBM E-score reported as 0.172

Entry GGGTCTAA , PBM E-score reported as -0.112

Entry CAATCTAC , PBM E-score reported as -0.0654

Entry ATGATACC , PBM E-score reported as 0.291

* * *

Assayed Target: Abf1 (UniProt P14164)
Sequence: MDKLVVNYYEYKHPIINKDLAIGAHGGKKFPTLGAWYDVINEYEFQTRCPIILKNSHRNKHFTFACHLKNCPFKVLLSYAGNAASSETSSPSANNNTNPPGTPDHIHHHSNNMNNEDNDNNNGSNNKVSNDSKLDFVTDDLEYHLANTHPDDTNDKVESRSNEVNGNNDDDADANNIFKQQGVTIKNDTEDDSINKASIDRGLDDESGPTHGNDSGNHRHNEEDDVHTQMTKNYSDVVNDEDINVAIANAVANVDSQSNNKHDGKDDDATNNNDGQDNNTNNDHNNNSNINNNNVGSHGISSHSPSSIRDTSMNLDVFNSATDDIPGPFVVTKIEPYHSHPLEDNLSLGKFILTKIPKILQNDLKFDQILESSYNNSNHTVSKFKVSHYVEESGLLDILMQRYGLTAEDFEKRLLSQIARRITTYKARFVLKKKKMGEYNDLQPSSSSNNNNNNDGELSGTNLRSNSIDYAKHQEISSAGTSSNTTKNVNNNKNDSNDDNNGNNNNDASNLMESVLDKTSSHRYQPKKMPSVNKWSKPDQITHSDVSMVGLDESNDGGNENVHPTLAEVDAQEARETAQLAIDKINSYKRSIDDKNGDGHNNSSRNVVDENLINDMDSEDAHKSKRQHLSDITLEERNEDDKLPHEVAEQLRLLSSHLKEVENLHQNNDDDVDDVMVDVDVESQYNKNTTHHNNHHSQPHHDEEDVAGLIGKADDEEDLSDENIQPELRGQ
Test Name: PBM E-score (8-mer binding enrichment) (E-score (-0.5 to 0.5)); higher = stronger / more preferred TF binding
Condition Summary: protein concentration: 200 nM; construct: GST-full length
Over roughly 33,000 sequences, “E-score (-0.5 to 0.5)” has its median near -0.015; the highest 2% begin near 0.3. Shown is part of a subset that was picked to be rich in the highest values.
Property: PBM E-score
Give the figure only, with no unit attached.

Entry TGTACCAA , PBM E-score reported as 0.0776

Entry GACATCAA , PBM E-score reported as 0.178

Entry GGATGACA , PBM E-score reported as 0.253

Entry ACGATCAT , PBM E-score reported as 0.222

Entry CGTACCAA , PBM E-score reported as 0.353

Entry CTCATCAC , PBM E-score reported as 0.217

Entry TATGACAA , PBM E-score reported as 0.27

Entry AGCATCAC , PBM E-score reported as -0.0618

Entry CGTACTAC , PBM E-score reported as 0.274

Entry GGCATCAC , PBM E-score reported as 0.0726

Entry ATCATCAC , PBM E-score reported as 0.393

Entry CACATCAC , PBM E-score reported as 0.244

Entry GATGACAC , PBM E-score reported as 0.337

Entry CGTACTAA , PBM E-score reported as 0.329

Entry CGTACTCA , PBM E-score reported as 0.304

Entry GTCATCAC , PBM E-score reported as 0.334

Entry CGTACCAG , PBM E-score reported as 0.0671

Entry CATGACAA , PBM E-score reported as 0.238

Entry ATGATCAT , PBM E-score reported as 0.387

Entry ATTTTTGC , PBM E-score reported as 0.113

Entry TGTACTAA , PBM E-score reported as 0.0702

Entry GACATCAC , PBM E-score reported as 0.352
